Origin of the recorded values: patent US8883789B2

# assay-system: human recombinant mGluR5 (Homo sapiens)
# Construct: hygromycin and geneticin selection
# run-description: positive modulation of mGluR5, calcium based FLIPR assay
# condition-context: HEK 293 cell line expressing human recombinant mGluR5; Ca2+ peak height after glutamate at approximately 5% basal stimulation; nonlinear regression
pEC50: −log10 of the molar value.
Quick rule: pEC50 of at least 7 means fulfilled, below that means not fulfilled.

Please indicate if the recorded pEC50 for COc1ccc2c(C)c(C(=O)N3CCN(C(=O)c4ncn(-c5cccc(Cl)c5)n4)C(C)C3)oc2c1 (stereo not shown) [Example 278] meets or exceeds 7.
not fulfilled

Please indicate if the recorded pEC50 for CC1CN(C(=O)c2ncn(-c3cccc(Cl)c3)n2)CCN1C(=O)c1cccc(-c2ccn(C)n2)c1 (stereo not shown) [Example 225] meets or exceeds 7.
not fulfilled

Please indicate if the recorded pEC50 for CC1(C)CN(C(=O)c2csc(C(F)(F)F)n2)CCN1C(=O)c1ncn(-c2ccccc2)n1 [Example 152] meets or exceeds 7.
not fulfilled

Please indicate if the recorded pEC50 for COc1cccc(C(=O)N2CCN(C(=O)c3ncn(-c4cccc(F)c4)n3)C3(CC3)C2)n1 [Example 304] meets or exceeds 7.
not fulfilled

Please indicate if the recorded pEC50 for Cc1oc2ccc(F)cc2c1C(=O)N1CCN(C(=O)c2ncn(-c3ccccc3)n2)C(C)(C)C1 [Example 102] meets or exceeds 7.
fulfilled

====

# assay-system: human recombinant mGluR5 (Homo sapiens, UniProt P41594)
# Construct: hygromycin and geneticin selection
# Sequence (P41594 21-1212): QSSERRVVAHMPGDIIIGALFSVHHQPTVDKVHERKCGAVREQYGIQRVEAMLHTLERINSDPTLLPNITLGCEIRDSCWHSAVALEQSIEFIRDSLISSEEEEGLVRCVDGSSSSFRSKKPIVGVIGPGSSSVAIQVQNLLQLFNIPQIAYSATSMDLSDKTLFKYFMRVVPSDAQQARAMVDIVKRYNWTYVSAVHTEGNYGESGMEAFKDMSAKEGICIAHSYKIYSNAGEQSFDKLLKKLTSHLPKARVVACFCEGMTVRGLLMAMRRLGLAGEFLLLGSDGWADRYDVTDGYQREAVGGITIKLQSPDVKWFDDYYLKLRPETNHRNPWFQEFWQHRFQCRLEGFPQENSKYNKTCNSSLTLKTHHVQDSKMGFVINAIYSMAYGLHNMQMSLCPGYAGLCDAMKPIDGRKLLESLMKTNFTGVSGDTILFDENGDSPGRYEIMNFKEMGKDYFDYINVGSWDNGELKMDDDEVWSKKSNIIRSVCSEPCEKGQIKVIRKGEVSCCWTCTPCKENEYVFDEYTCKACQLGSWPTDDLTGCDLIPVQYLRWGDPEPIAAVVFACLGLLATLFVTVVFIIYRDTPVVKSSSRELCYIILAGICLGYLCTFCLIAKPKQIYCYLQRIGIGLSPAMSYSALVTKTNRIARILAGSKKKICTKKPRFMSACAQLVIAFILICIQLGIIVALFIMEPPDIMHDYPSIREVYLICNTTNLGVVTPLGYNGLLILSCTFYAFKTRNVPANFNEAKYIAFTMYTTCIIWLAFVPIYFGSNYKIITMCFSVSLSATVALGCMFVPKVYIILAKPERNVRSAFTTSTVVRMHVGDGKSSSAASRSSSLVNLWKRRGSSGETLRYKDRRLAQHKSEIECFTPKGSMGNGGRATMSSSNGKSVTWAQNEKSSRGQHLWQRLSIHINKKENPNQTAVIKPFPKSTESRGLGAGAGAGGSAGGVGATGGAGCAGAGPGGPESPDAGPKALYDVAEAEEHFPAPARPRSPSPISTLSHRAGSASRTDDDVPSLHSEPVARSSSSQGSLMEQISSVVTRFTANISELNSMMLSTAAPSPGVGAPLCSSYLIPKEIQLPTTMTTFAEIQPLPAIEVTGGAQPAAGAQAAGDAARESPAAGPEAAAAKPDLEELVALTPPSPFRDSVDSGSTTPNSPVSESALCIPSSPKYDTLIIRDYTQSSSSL
# run-description: positive modulation of mGluR5, calcium based FLIPR assay
# condition-context: HEK 293 cell line expressing human recombinant mGluR5; Ca2+ peak height after glutamate at approximately 5% basal stimulation; nonlinear regression
value-type: EC50 (nM)
Number only, in nM; omit the unit.

// fetch EC50 given entry Cc1cc(-n2cnc(C(=O)N3CCN(C(=O)c4cc(Cl)c5c(c4)OCCO5)CC3(C)C)n2)ccc1F [Example 162]
475

// fetch EC50 given entry CC1(C)CN(C(=O)c2coc(C3CC3)n2)CCN1C(=O)c1ncn(-c2ccccc2)n1 [Example 140]
661

// fetch EC50 given entry COCCOc1nc(C(=O)N2CCN(C(=O)c3ncn(-c4cccc(Cl)c4)n3)C(C)(C)C2)cc2ccccc12 [Example 34]
221

// fetch EC50 given entry Cc1cc(C)cc(C(=O)N2CCN(C(=O)c3ncn(-c4cccc(Cl)c4)n3)C(C)(C)C2)c1 [Example 70]
142

====

# assay-system: human recombinant mGluR5 (Homo sapiens, UniProt P41594)
# Construct: hygromycin and geneticin selection
# run-description: positive modulation of mGluR5, calcium based FLIPR assay
# condition-context: HEK 293 cell line expressing human recombinant mGluR5; Ca2+ peak height after glutamate at approximately 5% basal stimulation; nonlinear regression
value-type: EC50

// fetch EC50 given entry `CCC[C@H]1CN(C(=O)c2ncn(-c3cccc(F)c3)n2)CCN1C(=O)c1cccc(OC)n1`
168 nM

// fetch EC50 given entry CCCOc1cccc(C(=O)N2CCN(C(=O)c3ncn(-c4cccc(Cl)c4)n3)CC2C)c1 (stereo not shown)
356 nM

// fetch EC50 given entry `CC(C)Oc1nc(C(=O)N2CCN(C(=O)c3ncn(-c4ccccc4)n3)C(C)(C)C2)cc2ccccc12`
50 nM

// fetch EC50 given entry COc1cccc(C(=O)N2CCN(C(=O)c3ncn(-c4cccc(F)c4)n3)CC2C)n1 (stereo not shown)
230 nM

// fetch EC50 given entry `Cc1cccc(-n2cnc(C(=O)N3CCN(C(=O)c4cc(Cl)c5c(c4)OCCO5)CC3(C)C)n2)c1`
53 nM

// fetch EC50 given entry `CC1(C)CN(C(=O)c2cc3ccccc3c(C3CC3)n2)CCN1C(=O)c1ncn(-c2cccc(Cl)c2)n1`
129 nM

// fetch EC50 given entry COc1cc(C(=O)N2CCN(C(=O)c3ncn(-c4cccc(C)c4)n3)CC2C)ccc1C (stereo not shown)
314 nM

// fetch EC50 given entry CC1CN(C(=O)c2ncn(-c3cccc(Cl)c3)n2)CCN1C(=O)c1cc(Br)c(Br)o1 (stereo not shown)
314 nM

// fetch EC50 given entry `COc1nc(C(=O)N2CCN(C(=O)c3nnn(-c4cccc(F)c4)n3)C(C)(C)C2)cc2ccccc12`
34 nM

// fetch EC50 given entry `CC1(C)CN(C(=O)c2cc3ccccc3cn2)CCN1C(=O)c1ncn(-c2cccc(Cl)c2)n1`
350 nM

// fetch EC50 given entry `CC1(C)CN(C(=O)c2cccc(-c3ccncc3)n2)CCN1C(=O)c1ncn(-c2cccc(Cl)c2)n1`
164 nM

// fetch EC50 given entry `COc1cccc(C(=O)N2[C@H](C)CN(C(=O)c3ncn(-c4cccc(C)c4)n3)C[C@@H]2C)n1`
251 nM

// fetch EC50 given entry `CC(C)COc1cccc(C(=O)N2CCN(C(=O)c3ncn(-c4ccccc4)n3)C(C)(C)C2)c1`
88 nM

// fetch EC50 given entry `COc1cccc(C(=O)N2CCN(C(=O)c3ncn(-c4cccc(F)c4)n3)C3(CCC3)C2)n1`
754 nM

// fetch EC50 given entry CC1CN(C(=O)c2ncn(-c3cccc(Cl)c3)n2)CCN1C(=O)c1ccc2ccn(C)c2c1 (stereo not shown)
294 nM

// fetch EC50 given entry `CC1(C)CN(C(=O)c2cccc(C3CCCC3)n2)CCN1C(=O)c1ncn(-c2cccc(Cl)c2)n1`
37 nM

// fetch EC50 given entry `CC1(C)CN(C(=O)c2cccc(-c3ccncc3)c2)CCN1C(=O)c1ncn(-c2cccc(Cl)c2)n1`
115 nM

// fetch EC50 given entry `COc1cccc(C(=O)N2CCN(C(=O)c3ncn(-c4cccc(F)c4)n3)C(C)(C)C2)n1`
101 nM

// fetch EC50 given entry CC1CN(C(=O)c2cc3c(Cl)cccc3s2)CCN1C(=O)c1ncn(-c2ccccc2)n1 (stereo not shown)
361 nM

// fetch EC50 given entry `CC1(C)CN(C(=O)c2csc(C3CC3)n2)CCN1C(=O)c1ncn(-c2ccccc2)n1`
487 nM

// fetch EC50 given entry `CC1(C)CN(C(=O)c2cccc(C3CCC3)c2)CCN1C(=O)c1ncn(-c2ccccc2)n1`
16 nM

// fetch EC50 given entry `COc1cccc(C(=O)N2CCN(C(=O)c3nnn(-c4ccc(F)cc4)n3)C(C)(C)C2)n1`
132 nM

// fetch EC50 given entry `CC1(C)CN(C(=O)c2nccc(C(F)(F)F)n2)CCN1C(=O)c1ncn(-c2ccccc2)n1`
613 nM

// fetch EC50 given entry `CC1(C)CN(C(=O)c2cccc(F)c2)CCN1C(=O)c1ncn(-c2ccccc2)n1`
233 nM

// fetch EC50 given entry Cc1c(C(=O)N2CCN(C(=O)c3ncn(-c4cccc(Cl)c4)n3)C(C)C2)oc2ccccc12 (stereo not shown)
530 nM

// fetch EC50 given entry `O=C(c1cc(Br)c(Br)o1)N1CCN(C(=O)c2ncn(-c3cccc(F)c3)n2)C2(CC2)C1`
503 nM

// fetch EC50 given entry `CCCOc1cccc(C(=O)N2CCN(C(=O)c3ncn(-c4cccc(Cl)c4)n3)C(C)(C)C2)c1`
53 nM

// fetch EC50 given entry `Cc1oc2ccc(F)cc2c1C(=O)N1CCN(C(=O)c2ncn(-c3cccc(F)c3)n2)C(C)(C)C1`
67 nM

// fetch EC50 given entry Cc1oc2ccccc2c1C(=O)N1CCN(C(=O)c2ncn(-c3ccccc3)n2)CC1C (stereo not shown)
350 nM

// fetch EC50 given entry Cc1cccc(-n2cnc(C(=O)N3CCN(C(=O)c4cc(Cl)c5c(c4)OCCO5)CC3C)n2)c1 (stereo not shown)
487 nM

// fetch EC50 given entry `CC1(C)CN(C(=O)c2cccc(Cl)c2)CCN1C(=O)c1nnn(-c2ccccc2)n1`
24 nM

====

Could you please report measured pEC50 for the items listed next?
# assay-system: human recombinant mGluR5 (Homo sapiens)
# Construct: hygromycin and geneticin selection
# run-description: positive modulation of mGluR5, calcium based FLIPR assay
# condition-context: HEK 293 cell line expressing human recombinant mGluR5; Ca2+ peak height after glutamate at approximately 5% basal stimulation; nonlinear regression
# Description: The positive modulation of mGluR5 is measured in a HEK 293 cell line expressing human recombinant mGluR5 and is detected with calcium based FLIPR assay. […] 20 μl of each compound solution are then transferred to the assay plate and the Ca2+ kinetic is measured to determine any intrinsic compound activity. […] The peak height of the Ca release related fluorescence signal (9-66) is used for the EC50. The EC50 of the modulation is calculated over a nonlinear regression with GraphPad Prism (Table 1).
Formally, pEC50 is defined as -log10 of the concentration c, with c in mol/L.

// fetch pEC50 given entry `CN(C)c1cccc(C(=O)N2CCN(C(=O)c3ncn(-c4cccc(Cl)c4)n3)C(C)(C)C2)c1`
6.87

// fetch pEC50 given entry Cc1c(C(=O)N2CCN(C(=O)c3ncn(-c4ccccc4)n3)C(C)C2)oc2ccc(F)cc12 (stereo not shown)
5.97

// fetch pEC50 given entry `O=C(c1cccc(Cl)c1)N1CCN(C(=O)c2ncn(-c3cccc(Cl)c3)n2)C2(CCCC2)C1`
6.44

// fetch pEC50 given entry `Cc1c(C(=O)N2CCN(C(=O)c3ncn(-c4ccccc4)n3)C(C)(C)C2)oc2ccccc12`
7.68
